- MEASURED_TARGET: T1, RBFOX1 RRM RbFoxmut (Fox-RRM*) (Homo sapiens, UniProt Q9NWB1 109-208, R118D;E147R;N151S;E152T)
- T1 sequence: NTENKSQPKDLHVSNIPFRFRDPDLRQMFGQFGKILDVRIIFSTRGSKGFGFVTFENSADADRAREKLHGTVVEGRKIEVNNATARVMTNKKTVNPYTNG
- EXPERIMENTAL_DETAILS: EMSA; HiTS-Eq, 1 nM pool, 10 min; buffer printed only for the single-RNA assays: 10 mM Tris pH 7.5, 150 mM NaCl, 3.4 mM EDTA, 0.001% NP-40, 30 C
- RUN_CONDITIONS: tags: His6 N-terminal (pET28a); label: 5' 32P
Over roughly 16,000 sequences, “ka relative to ugcaugu” has its median near 0.096; the highest 2% begin near 0.35. This is one part of a sample in which the highest values are shown more often than they occur.
MEASUREMENT_TYPE: binding signal

- BINDER: "CAACAUU (DNA:RNA) RNA: GGGAGACCGGAAUUCAGAUUGUCCCAACAUUUUAAAUCCCGUCGUAGCCACCA DNA 1: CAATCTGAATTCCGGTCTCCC DNA 2: TGGTGGCTACGACGGGATT"
  MEASUREMENT_TYPE: "binding signal"
  ASSAY_RESULT: "0.0738 KA relative to UGCAUGU"
- BINDER: "GUCCGCA (DNA:RNA) RNA: GGGAGACCGGAAUUCAGAUUGUCCGUCCGCAUUAAAUCCCGUCGUAGCCACCA DNA 1: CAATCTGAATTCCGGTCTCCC DNA 2: TGGTGGCTACGACGGGATT"
  MEASUREMENT_TYPE: "binding signal"
  ASSAY_RESULT: "0.107 KA relative to UGCAUGU"
- BINDER: "CCAGAGU (DNA:RNA) RNA: GGGAGACCGGAAUUCAGAUUGUCCCCAGAGUUUAAAUCCCGUCGUAGCCACCA DNA 1: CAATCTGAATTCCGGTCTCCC DNA 2: TGGTGGCTACGACGGGATT"
  MEASUREMENT_TYPE: "binding signal"
  ASSAY_RESULT: "0.126 KA relative to UGCAUGU"
- BINDER: "UGGCCCU (DNA:RNA) RNA: GGGAGACCGGAAUUCAGAUUGUCCUGGCCCUUUAAAUCCCGUCGUAGCCACCA DNA 1: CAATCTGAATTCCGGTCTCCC DNA 2: TGGTGGCTACGACGGGATT"
  MEASUREMENT_TYPE: "binding signal"
  ASSAY_RESULT: "0.0838 KA relative to UGCAUGU"
